B1: IRX6 (parent)
chain: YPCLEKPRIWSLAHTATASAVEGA

Variants of: B1
Experiment: protein stability index of a GFP-peptide fusion (GPS, HEK-293T) (PSI 1-6); higher = more stable;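 further: lentivirally expressed fusions sorted by FACS into six bins by GFP to DsRed ratio, PSI derived from sequencing read proportions per bin multiplied by bin number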
Details: c terminus: a fixed tail appended
For each entry below, report its protein stability index value.
One number for each entry.

sequence.change	reported.measurement
E5R	3.21

Hey, quick one: what's protein stability index for each of these?
1. T15I
2. H14Q
3. P2G
4. G23W
5. L4I
6. W10F
7. W10L

[1.72, 2.52, 3.7, 1.98, 2.46, 1.98, 3.78]
